molecular target: Bromodomain-containing protein 4 (Homo sapiens, UniProt O60885, Y390A); assay: Displacement of Alexa Fluor 647 labelled ligand from His6-tagged BRD4 BD1 (1 to 477 residues)/BD2 Y390A mutant (unknown origin) after 30 mins by TR-FRET assay
Parameter: IC50 (µM)

CNC(=O)c1cc(C(=O)NCCOC)cc2c1O[C@H](C)[C@H]2c1ccccc1 : 39.8
CCNC(=O)c1cc(C(=O)NC)c2c(c1)[C@H](c1ccccc1)[C@@H](C)O2 : 39.8
CNC(=O)c1cc(C(N)=O)cc2c1O[C@H](C)[C@H]2c1ccccc1 : 15.8
CNC(=O)c1cc(C(=O)NC)c2c(c1)[C@H](c1ccccc1)[C@@H](C)O2 : 12.6
CNC(=O)c1cc(C(=O)NCC[C@@H]2CNCCO2)cc2c1O[C@H](CF)[C@H]2c1ccccc1 : 50.1
CNC(=O)c1cc(C(=O)N[C@H]2C[C@H](O)C2)cc2c1O[C@H](CF)[C@H]2c1ccccc1 : 31.6
CNC(=O)c1cc(C(=O)N[C@@H]2C[C@H]2CO)cc2c1O[C@H](CF)[C@H]2c1ccccc1 : 15.8

====

assay: Clearance in Beagle dog hepatocytes assessed as per gram tissue at 0.5 uM measured up to 2 hrs by LC-MS/MS analysis; type: ADME, cell-based, Canis lupus familiaris, Hepatocyte
Parameter: CLH

CNC(=O)c1cc(C(=O)NCC[C@@H]2CNCCO2)cc2c1O[C@H](CF)[C@H]2c1ccccc1 : < 0.65 mL/min/g
CNC(=O)c1cc(C(=O)N[C@@H]2C[C@H]2CO)cc2c1O[C@H](CF)[C@H]2c1ccccc1 : < 0.65 mL/min/g

====

Parameter CLH: see the listing below.
assay: Clearance in human pooled hepatocytes assessed as per gram tissue at 0.5 uM by LC-MS/MS analysis; assay type: ADME, cell-based, Hepatocyte
Parameter: CLH

CNC(=O)c1cc(C(=O)NC2CC2)cc2c1O[C@H](C)[C@H]2c1ccccc1 : 1.42 mL/min/g
CNC(=O)c1cc(C(=O)NC2CC2)cc2c1O[C@H](CF)[C@H]2c1ccccc1 : < 0.45 mL/min/g
CNC(=O)c1cc(C(=O)N[C@H]2C[C@H](O)C2)cc2c1O[C@H](CF)[C@H]2c1ccccc1 : < 0.45 mL/min/g
CNC(=O)c1cc(C(=O)NC2CC2)cc2c1O[C@H](CO)[C@H]2c1ccccc1 : < 0.45 mL/min/g
CNC(=O)c1cc(C(=O)NC)c2c(c1)[C@H](c1ccccc1)[C@@H](CF)O2 : < 0.45 mL/min/g

====

Items are presented alongside their recorded log10 IC50.
system: Blood; test: Inhibition of LPS-induced MCP1 production in human whole blood preincubated for 30 mins followed by LPS addition measured after 24 hrs by immuno assay; type: functional, tissue-based
Parameter: log10 IC50 (log10 of the value in nM)

CNC(=O)c1cc(C(=O)N[C@@H]2C[C@H]2CO)cc2c1O[C@H](CF)[C@H]2c1ccccc1 : 2.30
CNC(=O)c1cc(C(=O)NC2CC2)cc2c1O[C@H](CO)[C@H]2c1ccccc1 : 2.90
CNC(=O)c1cc(C(=O)N[C@@H]2[C@@H]3COC[C@@H]32)cc2c1O[C@H](CF)[C@H]2c1ccccc1 : 1.70
CNC(=O)c1cc(C(=O)NC)c2c(c1)[C@H](c1ccccc1)[C@@H](CF)O2 : 2.30
CNC(=O)c1cc(C(=O)NCCC[C@H]2OC[C@H](N)CO2)cc2c1O[C@H](CF)[C@H]2c1ccccc1 : 2.10
CNC(=O)c1cc(C(=O)N[C@H]2C[C@H](O)C2)cc2c1O[C@H](CF)[C@H]2c1ccccc1 : 2.50
CNC(=O)c1cc(C(=O)N[C@H]2C[C@@H]2C)cc2c1O[C@H](CF)[C@H]2c1ccccc1 : 2.00
CNC(=O)c1cc(C(=O)NC2CC2)cc2c1O[C@H](CF)[C@H]2c1ccccc1 : 2.30
CNC(=O)c1cc(C(=O)NCC[C@@H]2CNCCO2)cc2c1O[C@H](CF)[C@H]2c1ccccc1 : 2.20
CNC(=O)c1cc(C(=O)NC2CC2)cc2c1O[C@H](C)[C@H]2c1ccccc1 : 2.30

====

experiment: Half life in Beagle dog at 1 mg/kg, iv; format: ADME, organism-based, Canis lupus familiaris; settings: in vivo
Parameter: half-life

CNC(=O)c1cc(C(=O)N[C@@H]2[C@@H]3COC[C@@H]32)cc2c1O[C@H](CF)[C@H]2c1ccccc1 : 4.8 h

====

assay: Clearance in Wistar Han rat hepatocytes assessed as per gram tissue at 0.5 uM by LC-MS/MS analysis; assay type: ADME, cell-based, Hepatocyte
Parameter: CLH

CNC(=O)c1cc(C(=O)NCC[C@@H]2CNCCO2)cc2c1O[C@H](CF)[C@H]2c1ccccc1 : 1.28 mL/min/g
CNC(=O)c1cc(C(=O)NC2CC2)cc2c1O[C@H](CO)[C@H]2c1ccccc1 : < 0.8 mL/min/g
CNC(=O)c1cc(C(=O)NCCC[C@H]2OC[C@H](N)CO2)cc2c1O[C@H](CF)[C@H]2c1ccccc1 : 1.39 mL/min/g
CNC(=O)c1cc(C(=O)N[C@H]2C[C@H](O)C2)cc2c1O[C@H](CF)[C@H]2c1ccccc1 : 1.84 mL/min/g
CNC(=O)c1cc(C(=O)N[C@@H]2C[C@H]2CO)cc2c1O[C@H](CF)[C@H]2c1ccccc1 : 1.65 mL/min/g
CNC(=O)c1cc(C(=O)NC2CC2)cc2c1O[C@H](C)[C@H]2c1ccccc1 : 2.48 mL/min/g

====

target: Bromodomain-containing protein 4 (Homo sapiens, UniProt O60885, Y97A); test: Displacement of Alexa Fluor 647 labelled ligand from His6-tagged BRD4 BD2 (1 to 477 residues)/BD1 Y97A mutant (unknown origin) after 30 mins by TR-FRET assay
pIC50: −log10 of the molar value.
Parameter: pIC50

CNC(=O)c1cc(C(=O)N[C@H]2C[C@H](O)C2)cc2c1O[C@H](CF)[C@H]2c1ccccc1 : 7.10
CNC(=O)c1cc(C(=O)NC2CCOC2)cc2c1O[C@H](CF)[C@H]2c1ccccc1 (stereo partly specified) : 6.80
CNC(=O)c1cc(C(=O)NCC[C@@H]2CNCCO2)cc2c1O[C@H](CF)[C@H]2c1ccccc1 : 7.40
CNC(=O)c1cc(C(=O)NC)c2c(c1)[C@H](c1ccccc1)[C@@H](C)O2 : 7.50
CCNC(=O)c1cc(C(=O)NC)c2c(c1)[C@H](c1ccccc1)[C@@H](C)O2 : 7.40
CNC(=O)c1cccc2c1O[C@@H](c1ccccc1)[C@@H]2C : 5.00
CNC(=O)c1cc(C(N)=O)cc2c1O[C@H](C)[C@H]2c1ccccc1 : 7.00
CNC(=O)c1cc(C(=O)NCCO)cc2c1O[C@H](C)[C@H]2c1ccccc1 : 6.80
CNC(=O)c1cccc2c1O[C@@H](C)[C@H]2c1ccccc1 : 5.60
CNC(=O)c1cccc2c1O[C@H](C)[C@H]2c1ccccc1 (single isomer, unassigned) : 6.10
CNC(=O)c1cc(C(=O)NCCOC)cc2c1O[C@H](C)[C@H]2c1ccccc1 : 6.70

====

assay: Oral bioavailability in Wistar Han rat at 3 mg/kg measured up to 24 hrs by LC-MS/MS analysis; assay type: ADME, organism-based; conditions: in vivo
Parameter: bioavailability (%)

CNC(=O)c1cc(C(=O)N[C@@H]2[C@@H]3COC[C@@H]32)cc2c1O[C@H](CF)[C@H]2c1ccccc1 : 48

====

biological target: serum albumin (Homo sapiens, UniProt P02768); test: Binding affinity to human serum albumin; assay type: ADME; details: read-out: PB (converted)
Sequence (P02768 whole entry): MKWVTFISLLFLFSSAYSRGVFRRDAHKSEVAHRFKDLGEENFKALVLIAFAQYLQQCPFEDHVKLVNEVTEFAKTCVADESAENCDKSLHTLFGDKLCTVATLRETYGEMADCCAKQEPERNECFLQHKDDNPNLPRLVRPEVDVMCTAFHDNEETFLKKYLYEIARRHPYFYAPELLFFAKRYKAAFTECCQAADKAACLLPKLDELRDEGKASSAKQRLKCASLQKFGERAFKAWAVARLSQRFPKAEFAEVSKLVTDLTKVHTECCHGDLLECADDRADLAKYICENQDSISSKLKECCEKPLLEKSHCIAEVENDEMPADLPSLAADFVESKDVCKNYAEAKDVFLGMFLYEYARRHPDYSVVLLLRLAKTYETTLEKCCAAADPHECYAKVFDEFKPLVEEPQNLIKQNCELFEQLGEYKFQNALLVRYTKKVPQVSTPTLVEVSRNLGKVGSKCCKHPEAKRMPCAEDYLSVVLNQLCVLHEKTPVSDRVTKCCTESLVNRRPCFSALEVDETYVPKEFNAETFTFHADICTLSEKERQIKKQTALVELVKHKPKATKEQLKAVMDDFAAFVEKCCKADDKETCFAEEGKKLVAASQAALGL
Parameter: fraction unbound

CNC(=O)c1cc(C(=O)NC2CC2)cc2c1O[C@H](C)[C@H]2c1ccccc1 : 0.11
CNC(=O)c1cc(C(=O)NC2CC2)cc2c1O[C@H](CO)[C@H]2c1ccccc1 : 0.21

====

A collection of compounds and their measured half-life
experiment: Half life in Wistar Han rat at 1 mg/kg administered as iv infusion for 1 hr and measured up to 7 hrs by LC-MS/MS analysis; format: ADME, organism-based; conditions: in vivo
Parameter: half-life (min)

CNC(=O)c1cc(C(=O)NCCC[C@H]2OC[C@H](N)CO2)cc2c1O[C@H](CF)[C@H]2c1ccccc1 : 36
CNC(=O)c1cc(C(=O)NC2CC2)cc2c1O[C@H](C)[C@H]2c1ccccc1 : 24
CNC(=O)c1cc(C(=O)NC2CC2)cc2c1O[C@H](CO)[C@H]2c1ccccc1 : 24
CNC(=O)c1cc(C(=O)N[C@@H]2C[C@H]2CO)cc2c1O[C@H](CF)[C@H]2c1ccccc1 : 30

====

experiment: Volume of distribution at steady state in Beagle dog at 1 mg/kg, iv; format: ADME, organism-based, Canis lupus familiaris; conditions: in vivo, read-out: Vdss
Parameter: Vd (L/kg)

CNC(=O)c1cc(C(=O)N[C@@H]2[C@@H]3COC[C@@H]32)cc2c1O[C@H](CF)[C@H]2c1ccccc1 : 1.3
